Data origin, for the record: patent US20250340552A1

Target: Cbl-B (Homo sapiens, UniProt Q13191)
Construct: MSD-Based Assay for Degradation of Cbl-B in THP-1 Cells; endogenous in cells; host or cells: THP-1 (title) / Jurkat (protocol text)
Sequence (Q13191 whole entry): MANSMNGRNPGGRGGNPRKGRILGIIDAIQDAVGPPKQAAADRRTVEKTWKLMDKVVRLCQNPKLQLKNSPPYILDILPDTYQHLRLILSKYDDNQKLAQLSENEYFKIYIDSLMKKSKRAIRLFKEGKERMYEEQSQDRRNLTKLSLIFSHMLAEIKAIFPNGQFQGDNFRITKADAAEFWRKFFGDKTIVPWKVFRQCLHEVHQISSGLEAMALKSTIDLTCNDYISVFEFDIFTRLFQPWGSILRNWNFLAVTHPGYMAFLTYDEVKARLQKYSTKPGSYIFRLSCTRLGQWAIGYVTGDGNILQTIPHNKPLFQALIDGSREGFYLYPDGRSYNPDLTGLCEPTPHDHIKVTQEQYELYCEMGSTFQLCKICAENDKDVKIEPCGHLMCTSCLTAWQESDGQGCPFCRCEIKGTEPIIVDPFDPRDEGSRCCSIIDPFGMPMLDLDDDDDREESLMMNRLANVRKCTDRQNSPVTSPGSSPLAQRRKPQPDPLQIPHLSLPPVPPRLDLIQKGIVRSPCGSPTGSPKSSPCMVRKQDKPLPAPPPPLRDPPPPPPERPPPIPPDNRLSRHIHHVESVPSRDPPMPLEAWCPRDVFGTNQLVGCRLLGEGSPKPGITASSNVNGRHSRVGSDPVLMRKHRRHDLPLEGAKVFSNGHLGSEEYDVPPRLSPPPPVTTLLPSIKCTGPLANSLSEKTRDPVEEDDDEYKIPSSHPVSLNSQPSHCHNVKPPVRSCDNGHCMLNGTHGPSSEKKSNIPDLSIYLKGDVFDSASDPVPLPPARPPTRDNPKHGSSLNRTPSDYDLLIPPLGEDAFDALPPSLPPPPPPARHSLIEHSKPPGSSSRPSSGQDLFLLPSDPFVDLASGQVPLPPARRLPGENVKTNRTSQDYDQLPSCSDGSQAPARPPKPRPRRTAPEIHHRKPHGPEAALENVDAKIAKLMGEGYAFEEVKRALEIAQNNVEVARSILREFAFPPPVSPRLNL
Assay: MSD-based assay for degradation of Cbl-B in THP-1 cells
Format: cell-based
Details: Cbl-B degradation, Jurkat cells seeded (heading: THP-1 cells), 24 hours incubation, MSD readout; read-out: Dmax
# reported Dmax; entries follow

| compound | Dmax |
| --- | --- |
| CN(CCC1CCN(Cc2cc(C(F)(F)F)c3cn(-c4cccc([C@H](c5nncn5C)C5CCC5)c4)c(=O)n3c2)CC1)C(=O)c1ccc(N2CCN(c3ccc4c(c3)CN([C@@H]3CCC(=O)NC3=O)C4=O)CC2)cc1 (single isomer, unassigned) | 50 to 70% |
| Cn1cnnc1[C@@H](c1cccc(-n2cc3c(C(F)(F)F)cc(CN4CCC(OCCOCc5ccc(COCCNc6cccc7c6C(=O)N(C6CCC(=O)NC6=O)C7=O)cc5)CC4)cn3c2=O)c1)C1CCC1 (single isomer, unassigned) | < 30% |
| Cn1cnnc1CC1(c2cccc(-n3cc4c(C(F)(F)F)cc(CN5CCC(COCc6ccc(CN7CCN(c8ccc9c(c8)CN([C@H]8CCC(=O)NC8=O)C9=O)CC7)cc6)CC5)cn4c3=O)c2)COC1 | > 70% |
| CN(CCN1CCC(CN2CCN(c3cc4c(cc3F)C(=O)N(C3CCC(=O)NC3=O)C4=O)CC2)CC1)Cc1cc(C(F)(F)F)c2cn(-c3cccc(C4(Cc5nncn5C)COC4)c3)c(=O)n2c1 (stereo not drawn) | < 30% |
| Cn1cnnc1CC1(c2cccc(-n3cc4c(C(F)(F)F)cc(CN5CCC[C@@H](OCc6ccc(CN7CCN(c8ccc9c(c8)CN(C8CCC(=O)NC8=O)C9=O)CC7)cc6)C5)cn4c3=O)c2)COC1 (stereo partly drawn) | 30 to 50% |
| CN(CCOC1CCN(Cc2cc(C(F)(F)F)c3cn(-c4cccc([C@H](c5nncn5C)C5CCC5)c4)c(=O)n3c2)CC1)C(=O)c1ccc(N2CCN(c3ccc4c(c3)CN([C@@H]3CCC(=O)NC3=O)C4=O)CC2)cc1 | 50 to 70% |
